Target: MDM2_(Fishes/Tetrapods)^ML
Assay: stopped-flow fluorescence kinetics; 10°C, 20 mM sodium phosphate pH 7.4, 150 mM NaCl, 1 mM TCEP; Trp23 emission; MDM2 constant at 0.5–2 μM, p53TAD varied 1–10 μM for k on; k off from displacement of the 1 μM:1 μM complex by 10–20 μM dansylated human p53TAD peptide; K D = k off/k on
Conditions: both partners purified
pKd: −log10 of the molar value. Ends that are not written are not given here.
The label depends only on pKd: T if it is at least 6, F if it is smaller.

binder	class label
SQETFSDLWNML (not fully specified (N-terminus); also: acetylated, site not given here) [p53TAD_(Fishes/Tetrapods)^ML]	T
SQETFNHLWNTL (not fully specified (N-terminus); also: acetylated, site not given here) [p53TAD_(Bilateria)^ML]	F
SQDTFSDLWNQL (not fully specified (N-terminus); also: acetylated, site not given here) [p53TAD1R^AltAll]	T
SQETFDFLWKSL (not fully specified (N-terminus); also: acetylated, site not given here) [p53TAD_(Bilateria)^AltAll]	T
